Value source: PubChem BioAssay (NCATS)

# METHOD: Cell Viability - LYMP2-012 (AID 982);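 further: cellular ATP by luciferase luminescence where a drop means cytotoxicity; cells exposed to compound for one day before reading; 0% = DMSO only and full loss = 92 µM tetraoctylammonium bromide; nearly all actives have a fitted effect of over 55% in size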
# APPLIED_CONDITIONS: LYMP2-012 lymphoblastoid cell viability qHTS; series mostly up to 92.2 µM
Inconclusive results are not listed. Activity calls are given as the source filed them. The call rests on the fitted dose curve; in most records, active means well fitted cell-killing curve with a large enough effect; inconclusive means small, poorly fitted or top-dose-only effect; inactive means flat fitted curve, though single readings scatter.
MEASUREMENT_LABEL: outcome

molecule=COc1c(C(C)(C)C)cc([N+](=O)[O-])c(C)c1[N+](=O)[O-] result=inactive
molecule=Oc1ccc(Cl)c(Cl)c1Cl result=inactive
molecule=ClCCOCCCl result=inactive
molecule=Cl/C=C\Cl result=inactive
molecule=O=c1ccc(=O)[nH][nH]1 result=inactive
molecule=O=[N+]([O-])c1ccccc1-c1ccccc1 result=inactive
molecule=CCC/C=N/O result=inactive
molecule=CCCCC#N result=inactive
molecule=CCCCCc1cc(O)cc(O)c1 result=inactive
molecule=O=[N+]([O-])c1ccc(Cl)c(Cl)c1Cl result=inactive
molecule=N#CCCC#N result=inactive
molecule="ClCC(Br)CBr (stereo not given)" result=inactive
molecule=C=CC(=O)OCCN(C)C result=inactive
molecule=OCCOCCO result=inactive
molecule=N#CCBr result=inactive
molecule=ClC(Cl)c1ccccc1 result=inactive
molecule=c1ccc2c(c1)CCNC2 result=inactive
molecule=[O-][Cl+]O result=inactive
molecule=Cc1cc(N=Nc2ccccc2C)ccc1N result=inactive
molecule=Cc1cc(C)cc(OP(=O)(Oc2cc(C)cc(C)c2)Oc2cc(C)cc(C)c2)c1 result=inactive
molecule=[O-][Cl+2]([O-])O result=inactive
molecule=O=[N+]([O-])c1cc(Cl)c(Cl)c(Cl)c1 result=inactive
molecule=Cc1cc(-c2ccc(N)c(C)c2)ccc1N result=inactive
molecule=Cc1ccc(N=C=O)cc1N=C=O result=inactive
molecule=CCCCCC[N+](=O)[O-] result=inactive

* * *

# key: entry, value: activation
# TGT: Bile acid receptor (Homo sapiens)
# METHOD: qHTS assay for small molecule agonists of farnesoid X receptor signaling (AID 588527);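 further: 0% = vehicle basal and 100% = reference agonist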
# APPLIED_CONDITIONS: HEK293T FXR-UAS-bla, beta-lactamase ratio, 16 h; stronger effect = higher value
Results filed as inconclusive are left out.
MEASUREMENT_LABEL: activation (%)

compound=Brc1ccc(Oc2ccc(Br)cc2Br)c(Br)c1 tgt="Bile acid receptor (Homo sapiens)" quantitative_readout=-1.06
compound=Nc1cc(Cl)cc(Cl)c1 tgt="Bile acid receptor (Homo sapiens)" quantitative_readout=-0.351
compound=Cc1cccc(C)c1N tgt="Bile acid receptor (Homo sapiens)" quantitative_readout=-1.75
compound=NNC(N)=S tgt="Bile acid receptor (Homo sapiens)" quantitative_readout=-2.79
compound=Oc1cccc(Cl)c1 tgt="Bile acid receptor (Homo sapiens)" quantitative_readout=2.65
compound=c1ccc(Nc2ccc(Nc3ccccc3)cc2)cc1 tgt="Bile acid receptor (Homo sapiens)" quantitative_readout=-1.54
compound=O=C(O)C(Cl)(Cl)Br tgt="Bile acid receptor (Homo sapiens)" quantitative_readout=-1.03
compound=O=[N+]([O-])/C=C/c1ccccc1 tgt="Bile acid receptor (Homo sapiens)" quantitative_readout=2.07
compound="CC(C)(COCC1CO1)COCC1CO1 (stereo not drawn)" tgt="Bile acid receptor (Homo sapiens)" quantitative_readout=1.49
compound=N#CCBr tgt="Bile acid receptor (Homo sapiens)" quantitative_readout=-0.961
compound=CCCC[N+](=O)[O-] tgt="Bile acid receptor (Homo sapiens)" quantitative_readout=-0.886
compound=O=Cc1ccc2c(c1)OCO2 tgt="Bile acid receptor (Homo sapiens)" quantitative_readout=0.344
compound=Nc1cccc(Cl)c1 tgt="Bile acid receptor (Homo sapiens)" quantitative_readout=-2.3
